- Measured on: CDK9/cyclin T1 (Homo sapiens, UniProt P50750)
- Sequence (P50750 whole entry): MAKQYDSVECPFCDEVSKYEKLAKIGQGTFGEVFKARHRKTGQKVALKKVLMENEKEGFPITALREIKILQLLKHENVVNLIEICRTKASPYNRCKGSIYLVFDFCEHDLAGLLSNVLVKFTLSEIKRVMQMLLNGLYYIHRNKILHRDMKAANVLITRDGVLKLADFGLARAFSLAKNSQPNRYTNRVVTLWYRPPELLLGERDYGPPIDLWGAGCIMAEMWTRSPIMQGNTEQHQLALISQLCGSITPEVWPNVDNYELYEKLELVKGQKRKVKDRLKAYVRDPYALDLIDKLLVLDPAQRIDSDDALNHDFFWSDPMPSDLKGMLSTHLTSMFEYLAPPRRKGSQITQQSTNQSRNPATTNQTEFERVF
- Sequence (O60563 whole entry partner): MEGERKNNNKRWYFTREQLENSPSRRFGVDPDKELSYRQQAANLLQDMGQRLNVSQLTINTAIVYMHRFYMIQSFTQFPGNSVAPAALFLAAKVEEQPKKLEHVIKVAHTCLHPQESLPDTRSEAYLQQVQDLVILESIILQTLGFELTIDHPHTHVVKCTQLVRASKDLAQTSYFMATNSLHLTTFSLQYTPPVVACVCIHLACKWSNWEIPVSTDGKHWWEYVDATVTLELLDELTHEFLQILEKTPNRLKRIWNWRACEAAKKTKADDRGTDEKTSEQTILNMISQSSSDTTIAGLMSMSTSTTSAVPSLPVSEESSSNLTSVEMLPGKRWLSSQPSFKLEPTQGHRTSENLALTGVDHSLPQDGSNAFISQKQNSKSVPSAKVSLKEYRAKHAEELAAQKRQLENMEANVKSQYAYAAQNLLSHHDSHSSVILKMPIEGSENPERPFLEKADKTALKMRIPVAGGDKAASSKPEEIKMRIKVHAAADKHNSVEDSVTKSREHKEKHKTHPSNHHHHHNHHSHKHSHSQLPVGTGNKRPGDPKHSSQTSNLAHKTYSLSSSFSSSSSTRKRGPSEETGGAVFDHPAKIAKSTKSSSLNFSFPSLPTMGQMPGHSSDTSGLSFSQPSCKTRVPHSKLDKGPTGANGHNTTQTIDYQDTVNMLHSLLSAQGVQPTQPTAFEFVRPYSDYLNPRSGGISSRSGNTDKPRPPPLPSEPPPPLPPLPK
- Test details: EMD Millipore (Eurofins) CDK panel
- Assay context: EMD Millipore screening panel, N = 1

Compound: c1ccc2c(c1)ncn2-c1cc(Nc2ccc(OCCN3CCCCC3)cn2)ncn1 [Compound 19]
IC50: 8 nM
--
Compound: CN1CCN(c2ccc(Nc3cc(-n4cnc5ccccc54)ncn3)nc2)CC1 [Compound 21]
IC50: 22 nM
--
Compound: CN1CCC[C@@H]1COc1ccc(Nc2cc(-n3cnc4ccccc43)ncn2)nc1 [Compound 17]
IC50: 8 nM
--
Compound: CN(C)CCOc1ccc(Nc2cc(-n3cnc4ccccc43)ncn2)nc1 [Compound 3]
IC50: 14 nM
--
Compound: CN(C)CCOc1ccc(Nc2cc(-n3ccnc3)ncn2)nc1 [Compound 6]
IC50: 88 nM

* * *

pIC50 listing for selected compounds.
- Measured on: CDK2/cyclinE (Homo sapiens, UniProt P24941)
- Test details: CDK2 enzyme assay: off-chip mobility shift assay
- Format: biochemical
- Set-up: purchased Upstate/Millipore
- Assay context: biochemical, CDK2/cyclinE; average of two determinations
pIC50: −log10 of the molar value.

Smiles structure: CN1CCC(Oc2ccc(Nc3cc(-n4cnc5ccccc54)ncn3)nc2)CC1
Measured on: CDK2/cyclinE (Homo sapiens, UniProt P24941)
Relation: =
pIC50: 5.91
--
Smiles structure: c1ccc2c(c1)ncn2-c1cc(Nc2ccc(OCCN3CCOCC3)cn2)ncn1
Measured on: CDK2/cyclinE (Homo sapiens, UniProt P24941)
Relation: =
pIC50: 6.26
--
Smiles structure: CN1CCC[C@H]1COc1ccc(Nc2cc(-n3cnc4ccccc43)ncn2)nc1
Measured on: CDK2/cyclinE (Homo sapiens, UniProt P24941)
Relation: =
pIC50: 6.27
--
Smiles structure: CN(C)CCOc1ccc(Nc2cc(-c3cnc4ccccc4c3)ncn2)nc1
Measured on: CDK2/cyclinE (Homo sapiens, UniProt P24941)
Relation: <
pIC50: 4.00
--
Smiles structure: CN1CCN(c2ccc(Nc3cc(-n4cnc5ccccc54)ncn3)nc2)CC1
Measured on: CDK2/cyclinE (Homo sapiens, UniProt P24941)
Relation: =
pIC50: 6.19
--
Smiles structure: CN(C)CCOc1ccc(Nc2cc(-n3cnc4ccccc43)ncn2)nc1
Measured on: CDK2/cyclinE (Homo sapiens, UniProt P24941)
Relation: =
pIC50: 6.24
--
Smiles structure: CN1CCC[C@@H]1COc1ccc(Nc2cc(-n3cnc4ccccc43)ncn2)nc1
Measured on: CDK2/cyclinE (Homo sapiens, UniProt P24941)
Relation: =
pIC50: 6.31
--
Smiles structure: c1cnc2ncn(-c3cc(Nc4ccc(OCCN5CCCCC5)cn4)ncn3)c2c1
Measured on: CDK2/cyclinE (Homo sapiens, UniProt P24941)
Relation: =
pIC50: 7.26
--
Smiles structure: CN(C)CCOc1ccc(Nc2cc(-n3cnc4ncccc43)ncn2)nc1
Measured on: CDK2/cyclinE (Homo sapiens, UniProt P24941)
Relation: =
pIC50: 6.79
--
Smiles structure: CN(C)CCOc1ccc(Nc2cc(-n3ccc4ccccc43)ncn2)nc1
Measured on: CDK2/cyclinE (Homo sapiens, UniProt P24941)
Relation: =
pIC50: 5.35
--
Smiles structure: CN(C)CCOc1ccc(Nc2cc(-n3cnc4ccccc43)ncn2)cc1
Measured on: CDK2/cyclinE (Homo sapiens, UniProt P24941)
Relation: =
pIC50: 4.70
--
Smiles structure: CN(C)CCOc1ccc(Nc2cc(-n3ncc4ccccc43)ncn2)nc1
Measured on: CDK2/cyclinE (Homo sapiens, UniProt P24941)
Relation: =
pIC50: 4.53
--
Smiles structure: C[C@H]1CN(C)CCN1c1ccc(Nc2cc(-n3cnc4ccccc43)ncn2)nc1
Measured on: CDK2/cyclinE (Homo sapiens, UniProt P24941)
Relation: =
pIC50: 6.08
--
Smiles structure: OCCc1ccc(Nc2cc(-n3cnc4ccccc43)ncn2)cc1
Measured on: CDK2/cyclinE (Homo sapiens, UniProt P24941)
Relation: =
pIC50: 5.94
--
Smiles structure: Cc1ccc2ncn(-c3cc(Nc4ccc(OCCN(C)C)cn4)ncn3)c2c1
Measured on: CDK2/cyclinE (Homo sapiens, UniProt P24941)
Relation: =
pIC50: 6.92
--
Smiles structure: CN(C)C1CCN(c2ccc(Nc3cc(-n4cnc5ccccc54)ncn3)nc2)CC1
Measured on: CDK2/cyclinE (Homo sapiens, UniProt P24941)
Relation: =
pIC50: 6.11
--
Smiles structure: CN(C)CCCOc1ccc(Nc2cc(-n3cnc4ccccc43)ncn2)nc1
Measured on: CDK2/cyclinE (Homo sapiens, UniProt P24941)
Relation: =
pIC50: 6.43
--
Smiles structure: CN1CCC[C@H]1COc1ccc(Nc2cc(-n3cnc4ncccc43)ncn2)nc1
Measured on: CDK2/cyclinE (Homo sapiens, UniProt P24941)
Relation: =
pIC50: 6.84

Measured values drawn from paper PMC5048338 for this set.
